tested on: RAW264.7; assay: Anti-inflammatory activity in mouse RAW264.7 cells assessed as inhibition of LPS-induced NO production preincubated for 1 hr followed by LPS stimulation and measured after 24 hrs by Griess reagent based assay; format: functional, cell-based
measurement-type: log10(IC50) (log10 of the value in µM)
Values below are the log10 of the recorded IC50, with µM as the unit.

Observe how each entry below is paired with its result.
{"chem-smiles": "C=CCCCCC/C=C\\[C@@H](C#CC#C[C@@H](O)CC)OC(C)=O", "study-target": "RAW264.7", "log10(IC50)": 0.36}
{"chem-smiles": "C=C[C@H](O)C#CC#C[C@@H](O)/C=C\\CCCCCCC", "study-target": "RAW264.7", "log10(IC50)": 0.73}
{"chem-smiles": "C=C[C@@]1(C)CCC2=C(CC[C@@H]3[C@](C)(C(=O)O)CCC[C@@]23C)C1=O", "study-target": "RAW264.7", "log10(IC50)": 1.06}
{"chem-smiles": "C=C[C@@]1(C)CCC2=C(C1=O)[C@H](O)C[C@@H]1[C@](C)(C(=O)O)CCC[C@@]21C", "study-target": "RAW264.7", "log10(IC50)": 1.34}
{"chem-smiles": "C=C[C@@]1(C)CC=C2[C@@H](CC[C@@H]3[C@](C)(C(=O)O)CCC[C@@]23C)C1=O", "study-target": "RAW264.7", "log10(IC50)": 1.00}

For RAW264.7, give the measured log10(IC50) of the entry C=C1C[C@@]23CC[C@@H]4[C@](C)(CO)CCC[C@@]4(C)[C@@H]2CC[C@@H]1C3
0.73

For RAW264.7, give the measured log10(IC50) of the entry C[C@@]12CCC[C@@](C)(C(=O)O)[C@H]1CCC1=C[C@@](C)([C@H]3CO3)CC[C@H]12
1.84

For RAW264.7, give the measured log10(IC50) of the entry C=C1[C@@H]2CC[C@H]3[C@]4(C)CCC[C@@](C)(C(=O)O)[C@H]4CC[C@]3(C2)[C@H]1O
1.40

For RAW264.7, give the measured log10(IC50) of the entry N=C(N)NN
1.27

Reference source: ChEMBL document CHEMBL4813939
